- STUDY_TARGET: T1, human MSLN-R3-3 polypeptide (human)
- T1 construct: also called human MSLN-R3-3 protein; hMSLN-R3-3
- ASSAY_OVERVIEW: ELISA on coated antigen, antibody 0.001 nM
VALUE_KIND: OD450 (OD450)
Please respond with the number in OD450 and leave the unit unwritten.

BINDER	UNITS_SYMBOL	OD450
S009-F2.39.3 (antibody, human IgG1, kappa, V domains shown, Human-murine chimeric antibody: murine VH/VL on human IgG1 heavy and kappa light constant regions) VH: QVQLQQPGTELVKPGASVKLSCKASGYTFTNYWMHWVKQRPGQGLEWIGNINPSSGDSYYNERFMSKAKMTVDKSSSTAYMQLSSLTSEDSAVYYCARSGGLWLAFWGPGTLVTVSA VL: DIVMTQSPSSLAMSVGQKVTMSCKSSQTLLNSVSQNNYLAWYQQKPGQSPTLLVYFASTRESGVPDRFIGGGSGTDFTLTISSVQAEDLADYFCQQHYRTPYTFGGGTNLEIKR	OD450	0.05

Task: Which OD450 reading was recorded for the binder S009-F2.58.8 (antibody, human IgG1, kappa, V domains shown, Human-murine chimeric antibody: murine VH/VL on human IgG1 heavy and kappa light constant regions) VH: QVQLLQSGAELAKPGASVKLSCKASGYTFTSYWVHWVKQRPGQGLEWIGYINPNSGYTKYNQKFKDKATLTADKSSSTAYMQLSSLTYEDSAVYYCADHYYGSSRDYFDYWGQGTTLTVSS VL: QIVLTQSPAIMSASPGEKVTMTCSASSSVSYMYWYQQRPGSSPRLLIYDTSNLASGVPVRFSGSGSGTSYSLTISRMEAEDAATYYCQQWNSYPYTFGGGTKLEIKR ?
Output: 0.06

Task: Which OD450 reading was recorded for the binder S009-F2-56.12 (antibody, human IgG1, kappa, V domains shown, Human-murine chimeric antibody: murine VH/VL on human IgG1 heavy and kappa light constant regions) VH: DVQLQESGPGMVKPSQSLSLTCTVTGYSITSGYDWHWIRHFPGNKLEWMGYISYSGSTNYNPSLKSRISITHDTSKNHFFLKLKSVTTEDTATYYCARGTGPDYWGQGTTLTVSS VL: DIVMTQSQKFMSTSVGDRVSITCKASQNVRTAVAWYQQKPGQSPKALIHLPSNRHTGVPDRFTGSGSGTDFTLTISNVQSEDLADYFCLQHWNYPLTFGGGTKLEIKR ?
Output: 0.06
